Where a name gives a salt, the structure may show the parent alone.
Parameter measured: melting point

I would be grateful if you could share the reported melting point for CCCCCS(=O)(=O)NC(=O)c1ccc2nc(C)n(Cc3ccc(N(C)C(=O)OCC)cc3Cl)c2n1 [Example 145] . 149 to 150 °C

Entry CCCCCS(=O)(=O)NC(=O)c1ccc2nc(C)n(Cc3ccc(OC(C)C)cc3Cl)c2n1 [Example 14] has what melting point? 130 to 133 °C

Could you tell me which melting point is on file for CCCCCS(=O)(=O)NC(=O)c1ccc2nc(C)n(Cc3ccc(OCCC)cc3Cl)c2n1 [Example 12] ? 131 to 134 °C

So what does the record say about melting point for CCC/C=C/S(=O)(=O)NC(=O)c1ccc2nc(C)n(Cc3ncc(NC(=O)OC(C)(C)C)cc3Cl)c2n1 (as salt: sodium) [Example 130] ? 202 to 204 °C

---

Structures can show the parent of a compound that is named as a salt.
Parameter measured: melting point

GET /values?readout=melting point&item= `CCCCS(=O)(=O)NC(=O)c1ccc2nc(C)n(Cc3ccc(NC(=O)OC(C)C)cc3Cl)c2n1` 181 to 182 °C

// lookup melting point for `CCCCCS(=O)(=O)NC(=O)c1ccc2nc(C)n(Cc3ccc(OC)cc3Cl)c2n1` 188 to 189 °C

Entry `CCCCCS(=O)(=O)NC(=O)c1ccc2nc(C)n(Cc3ccc(-n4cccc4)cc3Cl)c2n1` has what melting point? 171 to 172 °C

# get_value(readout='melting point', item= `CCCCCS(=O)(=O)NC(=O)c1ccc2nc(C)n(Cc3ccc(N(C)CC4CCCCC4)cc3Cl)c2n1` ) 169 to 170 °C

I have this molecule here, `CCCCCS(=O)(=O)NC(=O)c1cc(C)c2nc(C)n(Cc3ccc(C#Cc4ccccc4)cc3Cl)c2n1.[Na]` , and I need its recorded melting point. 175 to 178 °C

So what's the measured melting point for this one? `CCCCS(=O)(=O)NC(=O)c1ccc2nc(C)n(Cc3ccc(NC(=O)OC(C)(C)C)cc3Cl)c2n1` 229 to 230 °C

Which melting point value is on record for `CCCCCS(=O)(=O)NC(=O)c1ccc2nc(C)n(Cc3ccc(N(C)C(=O)OC(C)(C)C)cc3Cl)c2n1` ? 160 to 161 °C

Look up melting point for this molecule: `CCCCS(=O)(=O)NC(=O)c1ccc2nc(C)n(Cc3ccc(OC(C)C)cc3Cl)c2n1` 138 to 141 °C

Endpoint output: melting point of `CCCCS(=O)(=O)NC(=O)c1ccc2nc(C)n(Cc3ccc(OCC)cc3Cl)c2n1` . Value? 151 to 152 °C

Looking for the measured melting point of `CCCCCOc1ccc(Cn2c(C)nc3c(C)cc(C(=O)NS(=O)(=O)CCCCC)nc32)c(Cl)c1` , can you help? 149 to 150 °C

What does the data say about its melting point? Entry: `CCCCCS(=O)(=O)NC(=O)c1ccc2nc(C)n(Cc3ccc(-c4ccc(Cl)s4)cc3Cl)c2n1.[Na]` > 250 °C

# query: melting point of entry `CCCCCS(=O)(=O)NC(=O)c1ccc2nc(C)n(Cc3ncc(C(F)(F)F)cc3Cl)c2n1` 169 to 170 °C

Requested read-out: melting point. Entry: `CCCCCS(=O)(=O)NC(=O)c1ccc2nc(C)n(Cc3ncc(NC(=O)OCC)cc3Cl)c2n1` 232 to 233 °C

Item `CCCCOc1ccc(Cn2c(C)nc3ccc(C(=O)NS(=O)(=O)CCCC)nc32)c(Cl)c1` has what recorded melting point? 144 to 145 °C

Which measured melting point value corresponds to `CCCCCOc1ccc(Cn2c(C)nc3ccc(C(=O)NS(=O)(=O)CCCC)nc32)c(Cl)c1` ? 145 to 146 °C

I have this molecule here, `CCCNS(=O)(=O)NC(=O)c1ccc2nc(C)n(Cc3ccc(OCC)cc3Cl)c2n1` , and I need its recorded melting point. 152 to 155 °C

Given the entry `CCCCCS(=O)(=O)NC(=O)c1ccc2nc(C)n(Cc3ccc(OCCCC)cc3Cl)c2n1` , report its measured melting point. 133 to 136 °C

What value of melting point has been reported for the following molecule? CCC/C=C/S(=O)(=O)NC(=O)c1ccc2nc(C)n(Cc3ncc(NC(=O)OCC)cc3Cl)c2n1 (as salt: sodium) 236 to 239 °C

Which melting point is listed for `CCCCCS(=O)(=O)NC(=O)c1ccc2nc(C)n(Cc3ncc(NC(=O)OC(C)C)cc3Cl)c2n1` ? 228 to 230 °C

Which melting point value belongs to `CCC/C=C/S(=O)(=O)NC(=O)c1ccc2nc(C)n(Cc3ccc(NC(=O)OC(C)(C)C)cc3Cl)c2n1` ? 215 to 216 °C

---

What melting point was measured for each of the following?

Requested field: melting point. Item: CCCNS(=O)(=O)NC(=O)c1ccc2nc(C)n(Cc3ccc(-c4ccccc4)cc3Cl)c2n1 [Example 60] 208 to 209 °C

I am curious: what melting point value has been reported for CCCCCS(=O)(=O)NC(=O)c1cc(C)c2nc(C)n(Cc3ccc(N(C)C(=O)OC(C)(C)C)cc3Cl)c2n1 [Example 77] ? 193 to 194 °C

Returns the measured melting point for the input compound. Input: CCCCCOc1ccc(Cn2c(C)nc3ccc(C(=O)NS(=O)(=O)c4ccc(Br)s4)nc32)c(Cl)c1 [Example 23] 156 to 157 °C

Need melting point, item CCCCCS(=O)(=O)NC(=O)c1cc(C)c2nc(C)n(Cc3ccc(N(CC)C(=O)OC(C)(C)C)cc3Cl)c2n1 [Example 81] 190 to 191 °C

What melting point value was documented for this compound, CCCCCS(=O)(=O)NC(=O)c1ccc2nc(C)n(Cc3ccc(-c4ccco4)cc3Cl)c2n1 [Example 70] ? 184 to 185 °C

Give the measured melting point of CCCCCS(=O)(=O)NC(=O)c1ccc2nc(C)n(Cc3ccc(NC(=O)OC(C)C)cc3Cl)c2n1 [Example 108] . 198 to 199 °C

Quick one: melting point of CCCCCS(=O)(=O)NC(=O)c1ccc2nc(C)n(Cc3ccc(N(C)C(=O)C(C)(C)C)cc3Cl)c2n1 [Example 64] ? 207 to 208 °C

Item under review: CCC/C=C/S(=O)(=O)NC(=O)c1ccc2nc(C)n(Cc3ncc(NC(=O)OC(C)C)cc3Cl)c2n1 [Example 136] . Reported melting point? 242 to 244 °C

What melting point value was documented for this compound, CCCCCOc1ccc(Cn2c(C)nc3ccc(C(=O)NS(=O)(=O)c4ccc(Cl)s4)nc32)c(Cl)c1 [Example 24] ? 154 to 155 °C

Please give the measured melting point for this compound: `Cc1cc(C(=O)NS(=O)(=O)c2ccc(Br)s2)nc2c1nc(C)n2Cc1ccc(-c2ccccc2)cc1Cl.[Na]` > 250 °C

melting point for CCCCCS(=O)(=O)NC(=O)c1ccc2nc(C)n(Cc3ccc(OCC)cc3Cl)c2n1 [Example 8] ? 165 to 166 °C

Can you share its melting point? I mean this compound: CCCCS(=O)(=O)NC(=O)c1ccc2nc(C)n(Cc3ccc(NC(=O)OCC)cc3Cl)c2n1 [Example 111] 236 to 237 °C

Any idea what its melting point is? The compound is CCCCCS(=O)(=O)NC(=O)c1ccc2nc(C)n(Cc3ccc(N(C)C(=O)OCc4ccccc4)cc3Cl)c2n1 [Example 146] 120 to 121 °C

Look up melting point for this compound: CCCCCS(=O)(=O)NC(=O)c1ccc2nc(C)n(Cc3ncc(NC(=O)OC(C)(C)C)cc3Cl)c2n1 [Example 129] 193 to 194 °C

Given the entry CCCCS(=O)(=O)NC(=O)c1cc(C)c2nc(C)n(Cc3ccc(-c4ccco4)cc3Cl)c2n1 [Example 88] , report its measured melting point. 231 to 233 °C

Look up melting point for this compound: CCCCCOc1ccc(Cn2c(C)nc3ccc(C(=O)NS(=O)(=O)CCCCC)nc32)c(Cl)c1 [Example 20] 128 to 131 °C

Would you mind telling me what melting point value was observed for CCCCNS(=O)(=O)NC(=O)c1ccc2nc(C)n(Cc3ccc(OCC)cc3Cl)c2n1 [Example 11] ? 175 to 177 °C

Item under review: CCCCS(=O)(=O)NC(=O)c1cc(C)c2nc(C)n(Cc3ccc(OCCC)cc3Cl)c2n1 [Example 36] . Reported melting point? 164 to 166 °C

Please give the measured melting point for this compound: CCCCS(=O)(=O)NC(=O)c1ccc2nc(CC)n(Cc3ccc(OCC4CCCCC4)cc3Cl)c2n1 [Example 67] 145 to 146 °C

Value lookup for melting point; key = CCCCCS(=O)(=O)NC(=O)c1ccc2nc(C)n(Cc3ccc(OCC4CCCC4)cc3Cl)c2n1 [Example 27] 160 to 161 °C

Query (compound): CCCCCS(=O)(=O)NC(=O)c1ccc2nc(C)n(Cc3ccc(N(C)CCC)cc3Cl)c2n1 [Example 44] ; field requested: melting point 129 to 130 °C

What does the record list as melting point for CCCCCS(=O)(=O)NC(=O)c1ccc2nc(C)n(Cc3ccc(-c4ccccc4)nc3Cl)c2n1 [Example 127] ? 224 to 225 °C

Form field: reported melting point of CCCCS(=O)(=O)NC(=O)c1ccc2nc(C)n(Cc3ccc(OCCC)cc3Cl)c2n1 [Example 13] 153 to 154 °C

Could you tell me which melting point is on file for CCCCS(=O)(=O)NC(=O)c1ccc2nc(C)n(Cc3ccc(-c4ccco4)cc3Cl)c2n1 [Example 69] ? 208 to 209 °C

Find the recorded melting point belonging to CCCCCS(=O)(=O)NC(=O)c1ccc2nc(C)n(Cc3ccc(NC)cc3Cl)c2n1 [Example 42] and report it. 185 to 186 °C

Given the compound `CCCCCS(=O)(=O)NC(=O)c1ccc2nc(C)n(Cc3ccc(N(C)C(=O)OC(C)(C)C)cc3Cl)c2n1.[Na]` , what is its reported melting point? 231 to 233 °C

GET /values?readout=melting point&item= CCCCCOc1ccc(Cn2c(CC)nc3ccc(C(=O)NS(=O)(=O)CCCC)nc32)c(Cl)c1 [Example 66] 140 to 142 °C

// lookup melting point for CCCCCS(=O)(=O)NC(=O)c1ccc2nc(C)n(Cc3ccc(NC(=O)OC(C)(C)C)cc3Cl)c2n1 [Example 97] 222 to 224 °C

Quick one: melting point of CCCCCS(=O)(=O)NC(=O)c1ccc2nc(C)n(Cc3ccc(N(C)CCCC)cc3Cl)c2n1 [Example 45] ? 129 to 130 °C

What does the data say about its melting point? Entry: CCC/C=C/S(=O)(=O)NC(=O)c1ccc2nc(C)n(Cc3ccc(NC(=O)OC(C)C)cc3Cl)c2n1 [Example 102] 187 to 189 °C

Endpoint output: melting point of `CCCCCS(=O)(=O)NC(=O)c1ccc2nc(C)n(Cc3cnc(Cl)cc3Cl)c2n1` . Value? 161 to 163 °C

Hello, the source for this data is patent US6573274B1, in case you need it.
